Details: Glycogen 5-0.019 mg/ml, 3 μM probe, spectral analysis, Excitation 300-500, Emission 545
READOUT_TYPE: RFU change (Signal deviation with increasing [Carbohydrate])

COMPOUND: Cl.Cl.O=C(Cc1cc(-c2cccs2)sc1-c1ccc(-c2sc(-c3cccs3)cc2CC(=O)NCCc2c[nH]cn2)s1)NCCc1c[nH]cn1
OBSERVED_RESULT: Increases
--
COMPOUND: Cl.Cl.N=C(N)NCCC[C@H](NC(=O)Cc1cc(-c2cccs2)sc1-c1ccc(-c2sc(-c3cccs3)cc2CC(=O)N[C@@H](CCCNC(=N)N)C(=O)O)s1)C(=O)O
OBSERVED_RESULT: Increases
--
COMPOUND: Cl.Cl.NCCc1cc(-c2cccs2)sc1-c1ccc(-c2sc(-c3cccs3)cc2CCN)s1 [pHTEA, penta Hydrogen Thiophene Ethanol Amine]
OBSERVED_RESULT: Decreases
--
COMPOUND: Cl.Cl.c1csc(-c2cc(CCn3ccnc3)c(-c3ccc(-c4sc(-c5cccs5)cc4CCn4ccnc4)s3)s2)c1 [pHTIm, penta Hydrogen Thiophene Imidazole]
OBSERVED_RESULT: Increases
--
COMPOUND: O=C([O-])CC[C@H](NC(=O)Cc1cc(-c2cccs2)sc1-c1ccc(-c2sc(-c3cccs3)cc2CC(=O)N[C@@H](CCC(=O)[O-])C(=O)[O-])s1)C(=O)[O-].[Na+].[Na+].[Na+].[Na+]
OBSERVED_RESULT: Decreases
--
COMPOUND: NCCCC[C@H](NC(=O)Cc1cc(-c2cccs2)sc1-c1ccc(-c2sc(-c3cccs3)cc2CC(=O)N[C@@H](CCCCN)C(=O)[O-])s1)C(=O)[O-].[Na+].[Na+]
OBSERVED_RESULT: Increases
--
COMPOUND: O=C(Cc1cc(-c2cccs2)sc1-c1ccc(-c2sc(-c3cccs3)cc2CC(=O)N[C@@H](Cc2ccc([O-])cc2)C(=O)[O-])s1)N[C@@H](Cc1ccc([O-])cc1)C(=O)[O-].[Na+].[Na+].[Na+].[Na+]
OBSERVED_RESULT: Decreases
--
COMPOUND: O=C([O-])C[C@H](NC(=O)Cc1cc(-c2cccs2)sc1-c1ccc(-c2sc(-c3cccs3)cc2CC(=O)N[C@@H](CC(=O)[O-])C(=O)[O-])s1)C(=O)[O-].[Na+].[Na+].[Na+].[Na+]
OBSERVED_RESULT: Decreases

====

Conditions: cellulose concentration vs RFU, linear regression
Here the recorded Gradient Parameters (gradient of regression line) is given for each entry.
READOUT_TYPE: Gradient Parameters (gradient of regression line)

STRUCTURE_AS_SMILES: O=C(Cc1cc(-c2cccs2)sc1-c1ccc(-c2sc(-c3cccs3)cc2CC(=O)N[C@@H](Cc2ccc([O-])cc2)C(=O)[O-])s1)N[C@@H](Cc1ccc([O-])cc1)C(=O)[O-].[Na+].[Na+].[Na+].[Na+]
OBSERVED_RESULT: −51.4 ± 45.0
--
STRUCTURE_AS_SMILES: NCCCC[C@H](NC(=O)Cc1cc(-c2cccs2)sc1-c1ccc(-c2sc(-c3cccs3)cc2CC(=O)N[C@@H](CCCCN)C(=O)[O-])s1)C(=O)[O-].[Na+].[Na+]
OBSERVED_RESULT: 291.8 ± 46.6
--
STRUCTURE_AS_SMILES: O=C([O-])C[C@H](NC(=O)Cc1cc(-c2cccs2)sc1-c1ccc(-c2sc(-c3cccs3)cc2CC(=O)N[C@@H](CC(=O)[O-])C(=O)[O-])s1)C(=O)[O-].[Na+].[Na+].[Na+].[Na+]
OBSERVED_RESULT: 12.3 ± 64.4
